Test system: drug-resistant 2008/MRP1 cells
Assay Details: Cytotoxicity against drug-resistant 2008/MRP1 cells
Experimental Parameters: read-out: LC50 against drug-resistant 2008/MRP1 cells; 1 day exposure (overnight), FIG. 10
Non-standard residues stand in square brackets, D forms with d. Residues, ends and D or L forms follow the SMILES beside them. 12Ado = NCCCCCCCCCCCC(=O)O
Experimental Readout: CC50

Please report CC50 for the following molecule: NCCCCCCCCCCCC(=O)N[C@@H](CCCCN)C(=O)N[C@@H](CCCCN)C(=O)NCCCCCCCCCCCC(=O)N[C@@H](CCCCN)C(=O)N[C@@H](CCCCN)C(=O)NCCCCCCCCCCCC(=O)N[C@@H](CCCCN)C(=O)N[C@@H](CCCCN)C(=O)NCCCCCCCCCCCC(=O)N[C@@H](CCCCN)C(N)=O (H-[12Ado]KK[12Ado]KK[12Ado]KK[12Ado]K-NH2)
~15 µM

* * *

Assay Details: XTT cell viability assay, non-cancerous cardiac fibroblasts (CF)
Format: cell-based, rat
Experimental Parameters: primary cardiac fibroblasts (CF); primary non-cancerous rat cardiac fibroblasts, XTT assay; read-out: CF lethal concentration
Non-standard residues stand in square brackets, D forms with d. Residues, ends and D or L forms follow the SMILES beside them. *: point of attachment. Lauroyl = CCCCCCCCCCCC(=O)*; Aoc = NCCCCCCCC(=O)O
Experimental Readout: CC50 at 24 h

Return CC50 at 24 h (reported value) for this molecule: NCCCCCCCCCCCC(=O)N[C@@H](CCCCN)C(=O)NCCCCCCCCCCCC(=O)N[C@@H](CCCCN)C(=O)NCCCCCCCCCCCC(=O)N[C@@H](CCCCN)C(=O)O [(NC12K)3]
> 16 µM

Provide measured CC50 at 24 h value, entry: CCCCCCCCCCCC(=O)N[C@@H](CCCCN)C(=O)NCCCCCCCC(=O)N[C@@H](CCCCN)C(N)=O [C12(KNC8K)NH2]
< 16 µM

Check the records and state CC50 at 24 h for CCCCCCCCCCCC(=O)N[C@@H](CCCCN)C(=O)NCCCCCCCC(=O)N[C@@H](CCCCN)C(=O)N[C@@H](CCCCN)C(=O)NCCCCCCCC(=O)N[C@@H](CCCCN)C(N)=O [C12(KNC8K)2NH2] (Lauroyl-K[Aoc]KK[Aoc]K-NH2)
< 16 µM

Supply CC50 at 24 h value. Item: NCCCCCCCCCCCC(=O)N[C@@H](CCCCN)C(=O)NCCCCCCCCCCCC(=O)N[C@@H](CCCCN)C(=O)NCCCCCCCCCCCC(=O)N[C@@H](CCCCN)C(=O)NCCCCCCCCCCCC(=O)N[C@@H](CCCCN)C(=O)NCCCCCCCCCCCC(=O)N[C@@H](CCCCN)C(=O)NCCCCCCCCCCCC(=O)N[C@@H](CCCCN)C(=O)NCCCCCCCCCCCC(=O)N[C@@H](CCCCN)C(=O)NCCCCCCCCCCCC(=O)N[C@@H](CCCCN)C(N)=O [(NC12K)8NH2]
> 16 µM

* * *

Listing of recorded CC50 at 24 h by entry.
Assay Details: XTT cell viability assay, non-cancerous cardiac fibroblasts (CF)
Assay type: cell-based, rat
Experimental Parameters: primary cardiac fibroblasts (CF); primary non-cancerous rat cardiac fibroblasts, XTT assay; read-out: CF lethal concentration

Molecule	CC50 at 24 h
NCCCCCCCCCCCC(=O)N[C@@H](CCCCN)C(=O)NCCCCCCCCCCCC(=O)N[C@@H](CCCCN)C(=O)NCCCCCCCCCCCC(=O)N[C@@H](CCCCN)C(=O)NCCCCCCCCCCCC(=O)N[C@@H](CCCCN)C(=O)NCCCCCCCCCCCC(=O)N[C@@H](CCCCN)C(=O)NCCCCCCCCCCCC(=O)N[C@@H](CCCCN)C(N)=O [(NC12K)6NH2]	> 16 µM

# ---- query molecule ----
For the molecule NCCCC[C@H](NC(=O)CCCCCCCCCCCNC(=O)[C@H](CCCCN)NC(=O)CCCCCCCCCCCNC(=O)[C@H](CCCCN)NC(=O)CCCCCCCCCCCNC(=O)[C@H](CCCCN)NC(=O)CCCCCCCCCCCNC(=O)[C@H](CCCCN)NC(=O)CCCCCCCCCCCNC(=O)[C@@H](N)CCCCN)C(N)=O [K(NC12K)5NH2] , report CC50 at 24 h.
> 16 µM

Numbers sourced from patent US20100173832A1.
